Biological target: Thymidine kinase (Human herpesvirus 2)
Experiment: Inhibition of TdR phosphorylation using thymidine kinase (TK) assay for herpes simplex virus type 2 (HSV-2).
Below, each entry is listed alongside its reported log10 of IC50.
result-type: log10 of IC50 (log10 of the value in µM)

# molecule, system-tested, log10 of IC50
records = [
    ("O=c1[nH]c(Nc2ccc3ccccc3c2)nc2nc[nH]c12", "Thymidine kinase (Human herpesvirus 2)", 1.00),
    ("O=c1[nH]c(Nc2ccc(Br)c(Br)c2)nc2nc[nH]c12", "Thymidine kinase (Human herpesvirus 2)", 0.11),
    ("CCCCCCNc1nc2nc[nH]c2c(=O)[nH]1 [2-Hexylamino-1,9-dihydro-purin-6-one]", "Thymidine kinase (Human herpesvirus 2)", 1.00),
    ("O=c1[nH]c(Nc2ccc(F)c(Cl)c2)nc2nc[nH]c12", "Thymidine kinase (Human herpesvirus 2)", 0.40),
    ("CCc1cccc(Nc2nc3nc[nH]c3c(=O)[nH]2)c1", "Thymidine kinase (Human herpesvirus 2)", 0.60),
    ("O=c1[nH]c(Nc2cccc(C(F)(F)F)c2)nc2nc[nH]c12", "Thymidine kinase (Human herpesvirus 2)", -1.00),
    ("O=c1[nH]c(NCCCCCO)nc2nc[nH]c12", "Thymidine kinase (Human herpesvirus 2)", 1.60),
    ("O=c1[nH]c(Nc2cccc(Cl)c2)nc2nc[nH]c12", "Thymidine kinase (Human herpesvirus 2)", -0.46),
    ("O=c1[nH]c(Nc2ccc(Br)cc2)nc2nc[nH]c12", "Thymidine kinase (Human herpesvirus 2)", -0.22),
    ("O=c1[nH]c(Nc2ccc(O)cc2)nc2nc[nH]c12", "Thymidine kinase (Human herpesvirus 2)", 1.30),
    ("O=c1[nH]c(Nc2ccc(F)c(F)c2)nc2nc[nH]c12", "Thymidine kinase (Human herpesvirus 2)", 0.34),
    ("O=c1[nH]c(NCc2ccc(Cl)cc2)nc2nc[nH]c12", "Thymidine kinase (Human herpesvirus 2)", 0.74),
    ("O=c1[nH]c(Nc2ccc(C(F)(F)F)cc2)nc2nc[nH]c12", "Thymidine kinase (Human herpesvirus 2)", 1.60),
    ("Cc1ccc(Nc2nc3nc[nH]c3c(=O)[nH]2)cc1", "Thymidine kinase (Human herpesvirus 2)", 0.78),
    ("O=c1[nH]c(Nc2cccc(CO)c2)nc2nc[nH]c12", "Thymidine kinase (Human herpesvirus 2)", 1.30),
]
